Give measured Selectivity Ratio (B/A) for each item. Keep answers brief.
# test-system: human GIPR (Homo sapiens)
# Construct: expressed in transfected cells
# Sequence (P48546 22-466): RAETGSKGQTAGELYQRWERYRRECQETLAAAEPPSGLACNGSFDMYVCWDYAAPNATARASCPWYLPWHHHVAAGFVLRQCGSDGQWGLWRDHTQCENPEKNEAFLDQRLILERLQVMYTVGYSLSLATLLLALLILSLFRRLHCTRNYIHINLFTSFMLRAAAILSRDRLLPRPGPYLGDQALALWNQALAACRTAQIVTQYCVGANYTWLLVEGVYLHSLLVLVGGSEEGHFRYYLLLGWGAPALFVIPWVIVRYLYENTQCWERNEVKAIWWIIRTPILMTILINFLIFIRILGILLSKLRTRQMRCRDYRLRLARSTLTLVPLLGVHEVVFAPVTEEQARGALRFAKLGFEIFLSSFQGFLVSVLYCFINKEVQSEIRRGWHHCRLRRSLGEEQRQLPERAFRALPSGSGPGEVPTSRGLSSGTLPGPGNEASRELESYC
# measurement-protocol: Agonist activity on human GIPR, CRE-luciferase reporter assay (increase in intracellular cAMP as indicator)
# Assay type: cell-based
# reported-conditions: GLP1R EC50 / GIPR EC50
Answers are plain numbers.

Worked set:
YAibEGTFISDYSIALDKIHQQDFVNWLLAQ(Lys-(ethylene glycol)2-C15 diacid)G-OH [Compound 31] | 83090
YAibEGTFISDYSIELEK(Lys-(ethylene glycol)2-C15 diacid)AQRAFVEWLLAQGPSSGAPPPS-NH2 [Compound 23] | 3364
YAibEGTFISDYS(Lys-(ethylene glycol)2-C15 diacid)ALDKIHQQDFVNWLLAQRG-OH [Compound 32] | 83090

Continue with the substance presented below.
Task item: # query: Selectivity Ratio (B/A) | item YAibEGTFISDYSIALDKIHQQ(Lys-(ethylene glycol)2-C15 diacid)FVNWLLAQRG-OH [Compound 24] | system: human GIPR (Homo sapiens)
Reply: 82783
